tested on: MV4-11 cells; experiment: Cell viability assay (CellTiter-Glo), MV4-11; format: cell-based; details: Homo sapiens; MV4-11 cells, ATP levels with CellTiter-Glo; read-out: MV4-11 viability EC50
RESULT_TYPE: EC50 (nM)

* c1ccc2c(c1)ccn2-c1ccnc(NCCc2ccncc2)n1 | 410
* c1ccc2c(c1)ncn2-c1ccnc(NCCc2ccncc2)n1 | 120
* Clc1cnc(NCCc2cnc[nH]2)nc1-n1cnc2ccccc21 | 1000
* N#Cc1cnc(NCCc2ccncc2)nc1-n1cnc2ccccc21 | 410
* c1ccc2c(c1)ncn2-c1ccnc(NC2CCNC2)n1 (centres unmarked) | 80

* * *

target: Mnk1; test: Cellular inhibition of Mnk1, flow cytometry of phospho-eIF-4E (Ser209), U937 cells; format: cell-based; settings: read-out: U937 pEIF4E IC50, phospho-eIF-4E Ser209, flow cytometry
pIC50: −log10 of the molar value.
Below, each of the molecules is paired with its reported pIC50 value.
RESULT_TYPE: pIC50

- Clc1cccc(-n2cc(-c3ccnc(NCCc4c[nH]cn4)n3)cn2)c1: 7.09
- c1ccc2c(c1)ccn2-c1ccnc(NCCc2cnc[nH]2)n1: 6.64
- Clc1cnc(NCCc2cnc[nH]2)nc1-n1cnc2ccccc21: 6.20
- CN(C)CCNc1nccc(-c2cnn(C)c2)n1: 7.38
- FC(F)(F)c1cnc(NCCc2ccncc2)nc1-n1cnc2ccccc21: 6.85
- c1ccc2c(c1)ncn2-c1ccnc(Nc2ccncc2)n1: 7.29
- Fc1cnc(NCCc2ccncc2)nc1-n1cnc2ccccc21: 7.09
- CCn1cncc1CNc1nccc(-c2cnn(-c3cccc(OC)c3)c2)n1: 6.85
- c1ccc2c(c1)ncn2-c1ccnc(NC2CCNC2)n1 (stereo not drawn): 5.96

* * *

biological target: Mnk1 (Homo sapiens (Human)); experiment: Mnk1 kinase inhibition, ADP-Glo ADP monitoring assay; type: biochemical; details: unit inferred, read-out: Mnk1 IC50
Sequence (Q9BUB5 whole entry): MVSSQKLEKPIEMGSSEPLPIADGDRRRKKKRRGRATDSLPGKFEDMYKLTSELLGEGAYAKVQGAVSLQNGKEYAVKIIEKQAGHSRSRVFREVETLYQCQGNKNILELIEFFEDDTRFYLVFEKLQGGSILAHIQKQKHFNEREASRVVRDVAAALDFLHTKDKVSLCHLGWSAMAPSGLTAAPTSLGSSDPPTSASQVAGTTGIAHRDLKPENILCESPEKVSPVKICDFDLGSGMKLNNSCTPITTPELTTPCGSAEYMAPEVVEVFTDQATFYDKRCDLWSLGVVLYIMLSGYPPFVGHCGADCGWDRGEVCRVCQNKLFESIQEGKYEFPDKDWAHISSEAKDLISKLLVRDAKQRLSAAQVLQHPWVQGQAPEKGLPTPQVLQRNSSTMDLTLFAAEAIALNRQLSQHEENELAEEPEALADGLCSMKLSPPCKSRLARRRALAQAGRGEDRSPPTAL
pIC50: −log10 of the molar value.
Entries and their pIC50
RESULT_TYPE: pIC50

* CCOC(=O)c1cnc(NCCc2ccncc2)nc1-n1cnc2ccccc21 | 5.68
* c1ccc2c(c1)ncn2-c1ccnc(NCCc2c[nH]c3ccccc23)n1 | 6.30
* O[C@H](c1ccccc1)[C@@H](Nc1ccnc(-n2cnc3ccccc32)n1)c1ccccc1 | 5.25
* N#Cc1cnc(NCCc2ccncc2)nc1-n1cnc(-c2ccccc2)c1 | 7.02

* * *

system: MV4-11 cells; test: Cell viability assay (CellTiter-Glo), MV4-11; type: cell-based; settings: Homo sapiens; MV4-11 cells, ATP levels with CellTiter-Glo; read-out: MV4-11 viability EC50
pEC50: −log10 of the molar value.
This section presents compounds with their documented pEC50 values.
RESULT_TYPE: pEC50

- Clc1cnc(NCCc2ccncc2)nc1-n1cnc2ccccc21: 6.46
- FC(F)(F)c1cnc(NCCc2ccncc2)nc1-n1cnc2ccccc21: 5.35
- c1ccc2c(c1)ncn2-c1ccnc(NC2CCOC2)n1 (stereo not drawn): 6.21
- Fc1cnc(NCCc2ccncc2)nc1-n1cnc2ccccc21: 6.62
- CCn1cncc1CNc1nccc(-c2cnn(-c3cccc(OC)c3)c2)n1: 5.35
- Clc1cccc(-n2cc(-c3ccnc(NCCc4c[nH]cn4)n3)cn2)c1: 6.62
- c1ccc2c(c1)ncn2-c1ccnc(Nc2ccncc2)n1: 6.51
- CN(C)CCNc1nccc(-c2cnn(C)c2)n1: 6.72
- c1ccc2c(c1)ncn2-c1ccnc(N[C@H]2CCOC2)n1: 6.36

* * *

molecular target: Mnk1 (Homo sapiens (Human), UniProt Q9BUB5); assay: Mnk1 kinase inhibition, ADP-Glo ADP monitoring assay; type: biochemical; details: unit inferred, read-out: Mnk1 IC50
pIC50: −log10 of the molar value.
Label criterion not met if pIC50 falls below 6; label criterion met in every other case.

* Oc1cnc(NCCc2ccncc2)nc1-n1cnc2ccccc21 | criterion not met
* N#Cc1cnc(NCCc2ccncc2)nc1-n1cncn1 | criterion not met
* COC(=O)c1cnc(NCCc2ccncc2)nc1-n1cnc2ccccc21 | criterion not met
* O[C@@H](c1ccccc1)[C@H](Nc1nccc(-n2cnc3ccccc32)n1)c1ccccc1 | criterion not met
* NC(=O)c1cc(-n2cnc3ccccc32)nc(NCCc2ccncc2)n1 | criterion not met
* Clc1cnc(OCCc2ccncc2)nc1-n1cnc2ccccc21 | criterion met
* N#Cc1cnc(NCCc2ccncc2)nc1-n1ccnc1 | criterion not met
* Nc1cc(-n2cnc3ccccc32)nc(NCc2cccnc2)n1 | criterion not met
* O=C(NC1CC1)c1cc(-n2cnc3ccccc32)nc(NCCc2ccncc2)n1 | criterion not met
* Nc1cnc(NCCc2ccncc2)nc1-n1cnc2ccccc21 | criterion not met
* c1cc(NCCc2ccncc2)nc(-n2cnc3ccccc32)c1 | criterion met
* Brc1cnc(NCCc2ccncc2)nc1-n1cnc2ccccc21 | criterion met

* * *

Examples of compounds with documented pIC50 follow.
biological target: Mnk2 (Homo sapiens (Human), UniProt Q9HBH9); test: Mnk2 kinase inhibition, ADP-Glo ADP monitoring assay; type: biochemical; conditions: ADP-Glo kinase assay; read-out: Mnk2 IC50
Sequence (Q9HBH9 whole entry): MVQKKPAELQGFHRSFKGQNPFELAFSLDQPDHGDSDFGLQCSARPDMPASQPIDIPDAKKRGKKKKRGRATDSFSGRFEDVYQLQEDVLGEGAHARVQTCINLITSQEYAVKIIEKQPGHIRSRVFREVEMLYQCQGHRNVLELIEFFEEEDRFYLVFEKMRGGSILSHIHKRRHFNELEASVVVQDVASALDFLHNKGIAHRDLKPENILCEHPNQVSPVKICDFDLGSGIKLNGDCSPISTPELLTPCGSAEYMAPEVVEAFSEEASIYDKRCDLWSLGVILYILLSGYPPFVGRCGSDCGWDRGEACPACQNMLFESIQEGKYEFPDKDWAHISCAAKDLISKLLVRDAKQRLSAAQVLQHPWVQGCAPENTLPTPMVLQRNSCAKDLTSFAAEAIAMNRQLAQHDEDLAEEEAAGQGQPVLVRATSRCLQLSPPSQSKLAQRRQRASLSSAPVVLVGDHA
pIC50: −log10 of the molar value.
RESULT_TYPE: pIC50

• Nc1ccnc(-n2cnc3ccccc32)n1 = 5.85
• CC(O)CNc1ccnc(-n2cnc3ccccc32)n1 (stereo not drawn) = 6.89
• O[C@@H]1CC[C@@H](Nc2nccc(-n3cnc4ccccc43)n2)C1 = 7.21
• c1ccc2c(c1)ncn2-c1ccnc(NC2CCOCC2)n1 = 7.08
• c1ccc(Cn2cc(-c3ccnc(NCCc4ccncc4)n3)cn2)cc1 = 5.60
• c1ccc2c(c1)ncn2-c1ccnc(NC2CCOC2)n1 (stereo not drawn) = 8.02
• COC(=O)CNc1ncc(Cl)c(-n2cnc3ccccc32)n1 = 5.85
• CCCn1ncc(-c2ccnc(NCc3nccn3CC)n2)c1C = 4.80
• OC1CCC(Nc2nccc(-n3cnc4ccccc43)n2)CC1 (stereo not drawn) [NUCC-0176166] = 7.20
• c1ccc2c(c1)ccn2-c1ccnc(NCCc2cnc[nH]2)n1 [NUCC-0060958] = 7.02
• c1ccc2c(c1)c1ccccc1n2-c1ccnc(NCCc2ccncc2)n1 = 5.00
• O=[N+]([O-])c1ccc(NCCNc2nccc(-n3cnc4ccccc43)n2)nc1 = 5.68

* * *

target: UniProt:Q9BUB5; assay: Mnk1 kinase inhibition, ADP-Glo ADP monitoring assay; format: biochemical; conditions: read-out: Mnk1 inhibition IC50 (+,++,+++)
pIC50: −log10 of the molar value.
RESULT_TYPE: pIC50

* Clc1cnc(OC2CCOC2)nc1-n1cnc2ccccc21 (stereo not shown) | > 6.00
* NC(=O)c1ccc(-c2cnc(OC3CCNC3)nc2-n2cnc3ccccc32)cc1 (stereo not shown) | > 6.00
* Clc1cnc(OC2CCCOC2)nc1-n1cnc2ccccc21 (stereo not shown) | > 6.00
* c1ccc2c(c1)ncn2-c1ccnc(OC2CCNC2)n1 (stereo not shown) | > 6.00
* N[C@H]1C[C@H](Oc2ncc(Cl)c(-n3cnc4ccccc43)n2)C1 | > 6.00
* Clc1cnc(OC2CCOCC2)nc1-n1cnc2ccccc21 | > 6.00
* CC1=C(Oc2ncc(Cl)c(-n3cnc4ccccc43)n2)C(=O)CO1 | 5.00 to 6.00
* Clc1cnc(NC2CCNC2)nc1-n1cnc2ccccc21 (stereo not shown) | > 6.00
* NC1CCN(c2ncc(Cl)c(-n3cnc4ccccc43)n2)C1 (stereo not shown) | 5.00 to 6.00
* FC(F)(F)c1ccc(CCNc2ncc(Cl)c(-n3cnc4ccccc43)n2)cc1 | < 5.00
* NC1CC(Oc2ncc(Cl)c(-n3cnc(C(F)(F)F)c3)n2)C1 (stereo not shown) | > 6.00
* N#Cc1cnc(NC2C3CC2C3)nc1-n1cnc2ccccc21 (stereo not shown) | > 6.00
* FC(F)(F)c1cnc(NC23CC(C2)C3)nc1-n1cnc2ccccc21 | > 6.00
* CC(C)(COc1nc(-n2cnc3ccccc32)ncc1C#N)c1ccnc(F)c1 | 5.00 to 6.00
* N#Cc1cnc(OCc2ccncc2)nc1-n1cnc2ccccc21 | 5.00 to 6.00
* Brc1cnc(OCCc2ccncc2)nc1-n1cnc2ccccc21 | > 6.00
* O=C1CC(Nc2ncc(C(F)(F)F)c(-n3cnc4ccccc43)n2)CN1 (stereo not shown) | > 6.00
* Clc1cnc(OCCc2ccncc2)nc1-n1cnc2ccccc21 | > 6.00
* Cc1ccc2c(c1)ncn2-c1ncc(Cl)c(NCCc2ccncc2)n1 | > 6.00

* * *

target: Mnk1 (Homo sapiens (Human), UniProt Q9BUB5); assay: Cellular inhibition of Mnk1, flow cytometry of phospho-eIF-4E (Ser209), MV4-11 cells; assay type: cell-based; details: phospho-eIF-4E Ser209, flow cytometry, read-out: MV4-11 pEIF4E IC50
Sequence (Q9BUB5 whole entry, looked up): as the sequence (Q9BUB5 whole entry) above
pIC50: −log10 of the molar value.
RESULT_TYPE: pIC50

- O[C@H]1CC[C@H](Nc2nccc(-n3cnc4ccccc43)n2)C1: 7.13
- c1cncc(CCNc2ccnc(-n3cnc4ccccc43)n2)c1: 7.46
- O[C@H]1CC[C@@H](Nc2nccc(-n3cnc4ccccc43)n2)C1: 7.44
- O[C@@H]1CC[C@H](Nc2nccc(-n3cnc4ccccc43)n2)C1: 7.11
